System: PPARg:RXRa DBDmut IVT, anti-RXR (DBD mutation: RXRa K156A/R161A, NR concentration 270 nM, RXRa partner concentration 90 nM)
protocol: PBM binding z-score (relative to random genomic background probes); higher = stronger binding; sequences stand for … in GC…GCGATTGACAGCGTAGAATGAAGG
measurement.type: PBM binding z-score
Form: value (number only, do not type unit).

Some sequences with recorded PBM binding z-score:
>>> value_reported("ATATGTAGGTTAGCTGGGGCCATTCAGACTAGGC")
6.72
>>> value_reported("CGAACTAGGTCACGGACAGTGAATCTCCGCACGC")
8.66
>>> value_reported("TGATATAGGTAAAAGGTGAAAGTCGGTGTGGTAA")
5.38
>>> value_reported("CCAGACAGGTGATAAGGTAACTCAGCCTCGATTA")
0.812
>>> value_reported("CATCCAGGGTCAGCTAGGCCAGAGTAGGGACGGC")
0.695
>>> value_reported("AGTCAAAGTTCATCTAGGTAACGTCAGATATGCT")
1.33
>>> value_reported("CATAGAGGGTCAGCTAGGCCAGAGTAGGGACGGC")
1.42
>>> value_reported("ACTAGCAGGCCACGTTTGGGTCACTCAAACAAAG")
1.75

Switching to the query record.
Consider the sequence TTATATAGGTAATACAGGTGAAAGTCGGCATCTA and give its measured PBM binding z-score.
6.01

----------
Test system: LXRb homodimer (NR concentration 270 nM)
protocol: PBM binding z-score (relative to random genomic background probes); higher = stronger binding; sequences stand for … in GC…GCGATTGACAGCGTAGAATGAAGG
In this section, each of the sequences is paired with its reported PBM binding z-score.

>>> value_reported("TATACAGGGTCAAAGCCCAGAGTACGAATGTCGA")
2.15
>>> value_reported("TCTGCTAGGGCAACGATGGTCAGCTAATCTGCTA")
-0.884

Entry under review: ACTAGTTGGTCAGCTGAGGTTACACACAATTCGG . Reported PBM binding z-score?
0.188

Again, but for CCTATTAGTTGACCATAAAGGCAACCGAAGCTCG
0.816

Next sequence: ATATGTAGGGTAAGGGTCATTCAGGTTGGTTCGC
3.06

Check GATACAGGTTCAGCTAGAGGCCAGAGTATGGAAA too.
-0.537

What about this sequence? CGCCCAAGGTCAGAGAGGTCAGTGAATGCCGAGT
-0.135

----------
Test system: RXRa DBDmut IVT, anti-RXR (DBD mutation: RXRa K156A/R161A, NR concentration 90 nM)
protocol: PBM binding z-score (relative to random genomic background probes); higher = stronger binding; sequences stand for … in GC…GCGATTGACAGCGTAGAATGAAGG
Overview of reported PBM binding z-score across a group of sequences:
# respond with the number and nothing more

>>> value_reported("AGTCAAAGTTCAGGACCAGGTAACGTAAAGCACG")
2.84

What value of PBM binding z-score on RXRa DBDmut IVT, anti-RXR (DBD mutation: RXRa K156A/R161A, NR concentration 90 nM) does CCTCGGAGGACAACAGGAGGTCGGAGCTGCCAGA have?
0.0321

Follow-up item: TAGCCTAGGTCATGCGGGCCAGTGTAGTGTCGGC
0.446

Next up: TCTAGTTGGTCAAAGGGCACACACTCGAAATGCG
0.876

Subsequent entry: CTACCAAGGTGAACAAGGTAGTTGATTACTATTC
0.172

Query CGTACTGGGCCAAGGTCATTGATCAGTCAAAGCA next
1.57
